Biological target: T1, orthogonal hCD122 receptor (hoRb), hCD122 with H133D and Y134F (human, UniProt P14784 27-550)
T1 sequence: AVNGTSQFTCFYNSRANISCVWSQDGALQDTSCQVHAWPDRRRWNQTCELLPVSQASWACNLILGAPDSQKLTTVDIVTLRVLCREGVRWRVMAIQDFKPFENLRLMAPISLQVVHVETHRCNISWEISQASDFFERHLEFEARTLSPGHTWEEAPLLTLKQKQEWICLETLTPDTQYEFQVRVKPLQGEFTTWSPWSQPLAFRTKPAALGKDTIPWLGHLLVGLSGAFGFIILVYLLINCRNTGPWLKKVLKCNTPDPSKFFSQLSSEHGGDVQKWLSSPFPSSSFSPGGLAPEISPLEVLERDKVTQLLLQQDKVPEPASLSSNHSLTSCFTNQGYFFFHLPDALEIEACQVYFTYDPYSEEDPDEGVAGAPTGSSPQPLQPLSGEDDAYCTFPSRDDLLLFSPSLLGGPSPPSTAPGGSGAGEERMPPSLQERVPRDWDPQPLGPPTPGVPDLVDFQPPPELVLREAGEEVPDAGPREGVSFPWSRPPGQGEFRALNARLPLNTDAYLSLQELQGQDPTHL
Assay: cell-based or functional assay
Please note: class 1 applies when NKL Ortho Proliferation Signal 1:10 is 30000 or greater, and class 0 applies otherwise.

binder="L18G, SQVLKA (ligand) APTSSSTKKTQLQLSQLGVLLKAILNGINNYKNPKLTRMLTFKFYMPKKATELKHLQCLEEELKPLEEVLNLAQSKNFHLRPRDLISNINVIVLELKGSETTFMCEYADETATIVEFLNRWITFCQSIISTLT" answerlabel="class 0"
binder="H55Y, SQVLKA (ligand) APTSSSTKKTQLQLSQLLVLLKAILNGINNYKNPKLTRMLTFKFYMPKKATELKYLQCLEEELKPLEEVLNLAQSKNFHLRPRDLISNINVIVLELKGSETTFMCEYADETATIVEFLNRWITFCQSIISTLT" answerlabel="class 1"
binder="Q74H, SQVLKA (ligand) APTSSSTKKTQLQLSQLLVLLKAILNGINNYKNPKLTRMLTFKFYMPKKATELKHLQCLEEELKPLEEVLNLAHSKNFHLRPRDLISNINVIVLELKGSETTFMCEYADETATIVEFLNRWITFCQSIISTLT" answerlabel="class 1"
binder="Q126S, SQVLKA (ligand) APTSSSTKKTQLQLSQLLVLLKAILNGINNYKNPKLTRMLTFKFYMPKKATELKHLQCLEEELKPLEEVLNLAQSKNFHLRPRDLISNINVIVLELKGSETTFMCEYADETATIVEFLNRWITFCSSIISTLT" answerlabel="class 0"
binder="Q126R, SQVLKA (ligand) APTSSSTKKTQLQLSQLLVLLKAILNGINNYKNPKLTRMLTFKFYMPKKATELKHLQCLEEELKPLEEVLNLAQSKNFHLRPRDLISNINVIVLELKGSETTFMCEYADETATIVEFLNRWITFCRSIISTLT" answerlabel="class 0"
binder="ΔT51, SQVLKA (ligand) APTSSSTKKTQLQLSQLLVLLKAILNGINNYKNPKLTRMLTFKFYMPKKAELKHLQCLEEELKPLEEVLNLAQSKNFHLRPRDLISNINVIVLELKGSETTFMCEYADETATIVEFLNRWITFCQSIISTLT" answerlabel="class 0"

# check: NKL Ortho Proliferation Signal 1:10 of I92F, SQVLKA (ligand) APTSSSTKKTQLQLSQLLVLLKAILNGINNYKNPKLTRMLTFKFYMPKKATELKHLQCLEEELKPLEEVLNLAQSKNFHLRPRDLISNINVFVLELKGSETTFMCEYADETATIVEFLNRWITFCQSIISTLT is greater than or equal to 30000
class 0
